assay: soluble on expression in E. coli; label from the status in PepcDB or PDB records
ENDPOINT_LABEL: soluble on expression in E. coli

SEQUENCE_INPUT	ENDPOINT_LABEL	REPORTED_VALUE
MEHTIAVIPGSFDPITYGHLDIIERSTDRFDEIHVCVLKNSKKEGTFSLEERMDLIEQSVKHLPNVKVHQFSGLLVDYCEQVGAKTIIRGLRAVSDFEYELRLTSMNKKLNNEIETLYMMSSTNYSFISSSIVKEVAAYRADISEFVPPYVEKALKKKFKLEHHHHHH	soluble on expression in E. coli	soluble
MGSDKIHHHHHHMNEQIIEDLSSPWSGNTVHLVTVDGSQLIKKQYRKKEGYLREVHALRTVPQAICPSLVDAYEQLTYEPLQKNIQAADLDEIIGSLLRELHQHTVQKPSVFDPGNGVTKETWLDYLESFAPNWLQTIGTEKYESMYWSAINSVRAAYDRNQRALCLIHRDARLANVGEGSDGRFLFLDFELAIIGDPLWDVARYLIQSVHSETTFLKAYEFDHTEIEVLQAYKKLYAMSFMNYLIKNKQADTLDFKKCVNVLTN	soluble on expression in E. coli	not soluble
MPRVKAAQAGRQSSAKRHLAEQFAVGEIITDMAKKEWKVGLPIGQGGFGCIYLADMNSSESVGSDAPCVVKVEPSDNGPLFTELKFYQRAAKPEQIQKWIRTRKLKYLGVPKYWGSGLHDKNGKSYRFMIMDRFGSDLQKIYEANAKRFSRKTVLQLSLRILDILEYIHEHEYVHGDIKASNLLLNYKNPDQVYLVDYGLAYRYCPEGVHKEYKEDPKRCHDGTIEFTSIDAHNGVAPSRRGDLEILGYCMIQWLTGHLPWEDNLKDPKYVRDSKIRYRENIASLMDKCFPEKNKPGEIAKYMETVKLLDYTEKPLYENLRDILLQGLKAIGSKDDGKLDLSVVENGGLKAKTITKKRKKEIEESKEPGVEDTEWSNTQTEEAIQTRSRTRKRVQK	soluble on expression in E. coli	soluble
GPLHMVKVALAGCPNVGKTSLFNALTGTKQYVANWPGVTVEKKEGVFTYKGYTINLIDLPGTYSLGYSSIDEKIARDYLLKGDADLVILVADSVNPEQSLYLLLEILEMEKKVILAMTAIDEAKKTGMKIDRYELQKHLGIPVVFTSSVTGEGLEELKEKIVEYAQKNTILHRMILDYGEKVESEIKKVENFLRDKKLRINPRYFALKYLSGDPEFYSEGVKLGLPELSEEERIGYRLLIAKRKREYVENVVKEAFAD	soluble on expression in E. coli	soluble
VRMVGLTIETRPDWAFERQIDRMLAFGTTRVELGVQTIFNFIHERVGRGHGVEEIIKATQLLRDAGLKINYHIMPGLPGSNFERDLYVFKTIFEDPRFRPDMLKIYPTLVTRDAPLYAWYKAGLYKPYTTEEAVELLVEAYKIFPKWVRVMRIQRDIPSHLIVAGVKHSNLGQLVFEELVRRGIRPREI	soluble on expression in E. coli	not soluble
MLQPPFNIKVTNITLTTAVVTWQPPILPIEGILVTFGRKNDPSDETTVDLTSSITSLTLTNLEPNTTYEIRIVARNGQQYSPPVSTTFTTGSLEHHHHHH	soluble on expression in E. coli	soluble
MADEAQAPPAEGAPPAEGEAPPPAEGAEGAVEGGEAAPPAEPAEPIKHSYTLFYFNVKALAEPLRYLFAYGNQEYEDVRVTRDEWPALKPTMPMGQMPVLEVDGKRVHQSISMARFLAKTVGLCGATPWEDLQIDIVVDTINDFRLKIAVVSYEPEDEIKEKKLVTLNAEVIPFYLEKLEQTVKDNDGHLALGKLTWADVYFAGITDYMNYMVKRDLLEPYPALRGVVDAVNALEPIKAWIEKRPVTEV	soluble on expression in E. coli	soluble
MNNIPVEIRLLKNRTVLVLTYGDEPKNLPAEFLRVYSPSAEVRGHGVGQDVLQTGKADVQIADLQPVGQYALKISFSDGHDSGLYDWAYLHRLAYGYDAMWQEYLDKLAAAGASRFEEK	soluble on expression in E. coli	not soluble

Next sequence, please.
Request the reported soluble on expression in E. coli associated with MAHHHHHHLPALKLALEYIVPCMNKHGICVVDDFLGKETGQQIGDEVRALHDTGKFTDGQLVSQKSDSSKDIRGDKITWIEGKEPGCETIGLLMSSMDDLIRHCNGKLGSYKINGRTKAMVACYPGNGTGYVRHVDNPNGDGRCVTCIYYLNKDWDAKVSGGILRIFPEGKAQFADIEPKFDRLLFFWSDRRNPHEVQPAYATRYAITVWYFDADERARAKVKYLTGEKGVRVELNKPSDSVGKDVF soluble

Value source: the DeepSol protein solubility set
